Listed here: items and their measured efflux ratio at 60 min, 10 µM.
# Tested on: P-glycoprotein (human MDR1)
# measurementNotes: Permeability on MDCKII-hMDR1 cell monolayers
# Format: in vitro ADME, canine
# condition: dog, MDCK-MDR1, pH 7.4
testReadout: efflux ratio at 60 min, 10 µM

- molecule: "FC(F)(F)c1cc(OCc2cc(-c3ccccn3)no2)c2ccccc2n1 [Compound 7b]"
  readoutNumber: 0.7
- molecule: "N/C(=N\\O)c1ccc(-c2cc(CNc3cccc4cccnc34)on2)cc1 [Compound 8f]"
  readoutNumber: 0.9
- molecule: "N#Cc1ccc(-c2cc(CNc3cccc4cccnc34)on2)cc1 [Compound 8e]"
  readoutNumber: 0.9
- molecule: "c1ccc(-c2cc(CNc3cccc4cccnc34)on2)nc1 [Compound 8b]"
  readoutNumber: 1.6
